experimental.system: human TYK2 (JH2domain-pseudokinase) (Homo sapiens (Human), UniProt P29597)
Sequence (P29597 556-888): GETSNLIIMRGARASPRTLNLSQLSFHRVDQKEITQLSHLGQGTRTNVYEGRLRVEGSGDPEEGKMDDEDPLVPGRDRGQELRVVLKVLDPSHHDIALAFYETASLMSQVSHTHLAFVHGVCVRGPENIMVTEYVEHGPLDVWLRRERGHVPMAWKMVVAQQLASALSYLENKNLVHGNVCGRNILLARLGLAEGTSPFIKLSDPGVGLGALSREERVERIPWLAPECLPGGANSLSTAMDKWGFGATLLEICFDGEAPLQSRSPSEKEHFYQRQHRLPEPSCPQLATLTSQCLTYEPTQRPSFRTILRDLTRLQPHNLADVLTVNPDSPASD
protocol.description: TYK2 JH2 Domain Binding Assay (KINOMEscan)
pKd: −log10 of the molar value.
Give pKd for every item shown.

For orientation, consider the following solved cases.
- CNc1cc(Nc2cccn(-c3nc(C)co3)c2=O)nc2c(C(=O)N[C@H]3C[C@H]3F)cnn12: > 9.70
- CNc1cc(Nc2cccn([C@H]3C[C@@H]3F)c2=O)nc2c(C(=O)NC3CC3)cnn12: > 9.70
- CNc1cc(Nc2cc(Cl)cnc2OC2CCC2)nc2c(C(N)=O)cnn12: 9.00 to 9.70
- CNc1cc(Nc2cccn([C@H]3CCC[C@H]3O)c2=O)nc2c(C(=O)N[C@@H]3CC[C@H]3OC)cnn12: 9.00 to 9.70
- CNc1cc(Nc2cccnc2OC2CCC2)nc2c(C(=O)NC3CCC3)cnn12: 9.00 to 9.70
- CNc1cc(-c2cn(CCN3CCCCC3)c3ncccc23)nc2c(C(=O)N[C@@H]3CC[C@H]3O)cnn12: > 9.70
- CNc1cc(Nc2cccn(-c3cnn(C)c3)c2=O)nc2c(C(=O)NC[C@@H](C)CO)cnn12: > 9.70
- CNc1cc(Nc2cccn([C@H]3CCCOC3)c2=O)nc2c(C(=O)N[C@@H]3C[C@@H]3F)cnn12: > 9.70
- CNc1cc(Nc2cccn(C3CCN(CCF)CC3)c2=O)nc2c(C(=O)NCC3(CO)CC3)cnn12: > 9.70
- CNc1cc(-c2cn(C(C)C)c3ncccc23)nc2c(C(=O)NCC(C)(C)CO)cnn12: 9.00 to 9.70

Would you be so kind as to report pKd for each listed record?
1. CNc1cc(Nc2cccn(-c3cnc(C(=O)N(C)C)cn3)c2=O)nc2c(C(=O)N[C@H]3C[C@H]3F)cnn12
2. CNc1cc(Nc2cccn(C(C)C)c2=O)nc2c(C(=O)N[C@H]3CCC[C@]3(C)O)cnn12

A)
["> 9.70", "> 9.70"]

====

experimental.system: human TYK2 (JH2domain-pseudokinase) (Homo sapiens (Human))
protocol.description: TYK2 JH2 Domain Binding Assay (KINOMEscan)
pKd: −log10 of the molar value.
assay.endpoint: pKd

Use these answered entries as a reference point.
• CNc1cc(-c2cn(C(C)C)c3ncccc23)nc2c(C(=O)N[C@H]3C[C@@H]3O)cnn12 (stereo in doubt) = > 9.70
• NC(=O)c1cnn2c(N)cc(Nc3cc(Cl)cnc3OC3CCOC3)nc12 (centres unmarked) = 8.00 to 9.00
• CNc1cc(Nc2cccnc2OC(C)C)nc2c(C(=O)NC3COC3)cnn12 = < 8.00
• CNc1cc(-c2cn(C(C)C)c3ncccc23)nc2c(C(=O)N[C@@H]3C[C@H]3O)cnn12 (stereo in doubt) = > 9.70
• CNc1cc(Nc2cccnc2OC2CCOCC2)nc2c(C(=O)NC3CC3)cnn12 = 9.00 to 9.70
• CNc1cc(Nc2cc(F)cn(-c3ccccn3)c2=O)nc2c(C(=O)NC3CCC3)cnn12 = 9.00 to 9.70

Dear colleague, could you send me pKd for each of the items below? Thanks.
1. CCO[C@@H]1CC[C@H]1NC(=O)c1cnn2c(NC)cc(Nc3cccn(-c4ccccn4)c3=O)nc12 [I-1294]
2. CNc1cc(Nc2cccc(N3CC4(CCO4)C3)n2)nc2c(C(=O)NC3CC3)cnn12

A)
["> 9.70", "> 9.70"]
